System: guineagrass
Experimental protocol: Test F preemergence test
Format: in vivo, Panicum maximum
Test conditions: 62 g ai/ha, Preemergence; scale 0 to 100
Experimental readout: Guineagrass plant response rating

Compound	Reported result
CC(Oc1c(C[S+]([O-])c2cccc[n+]2[O-])c(C(F)(F)F)nn1C)C(F)(F)F (stereo not drawn) [Compound 77]	100
Cc1cc[n+]([O-])c(S(=O)(=O)C(Cl)c2c(C(F)(F)F)nn(C)c2OCC(F)(F)F)c1 (racemic) [Compound 37]	85
CCn1nc(C(F)(F)F)c(CS(=O)(=O)c2cc(C)cc[n+]2[O-])c1OCC(F)(F)F [Compound 64]	100
Cn1nc(C(F)(F)F)c(C[S+]([O-])c2ccc(F)c[n+]2[O-])c1OC(F)F (stereo not drawn) [Compound 58]	100
Cn1nc(C(F)(F)F)c(C[S+]([O-])c2cccc[n+]2[O-])c1OCC(F)(F)F (racemic) [Compound 28]	100
Cn1nc(C(F)(F)C(F)(F)F)c(C[S+]([O-])c2cccc[n+]2[O-])c1OCC(F)(F)F (stereo not drawn) [Compound 79]	100
